Data provenance is the NIST ThermoML archive (doi:10.1021/je0342825).

Conditions: 298.15 K; 101.3 kPa; Liquid
We begin with a simple list: items and their reported speed of sound.

| COMPOUND | speed of sound (m/s) |
| --- | --- |
| CO | 1104 |
| CCOC(C)=O [ethyl acetate] | 1140 |
| CCO | 1145 |
| CC(=O)O | 1132 |
| COC(C)=O [methyl ethanoate] | 1151 |

====

In this section we review reported mass density values for a set of compounds.
Conditions: 303.15 K; 101.3 kPa; Liquid

| COMPOUND | mass density / kg/m3 |
| --- | --- |
| CCOC(C)=O [ethyl acetate] | 888.3 |
| CC(=O)O [acetic acid] | 1038 |
| COC(C)=O [methyl ethanoate] | 920.34 |
| CO [methanol] | 782.48 |
| CCO [ethanol] | 781.15 |

====

Settings: 293.15 K; 101.3 kPa; Liquid

| COMPOUND | DISPLAY_UNIT | speed of sound |
| --- | --- | --- |
| CC(=O)O [acetic acid] | m/s | 1149 |
| COC(C)=O [methyl ethanoate] | m/s | 1174 |
| CCO [ethanol] | m/s | 1162 |
| CO [methanol] | m/s | 1121 |
| CCOC(C)=O [ethyl acetate] | m/s | 1163 |

====

Settings: 303.15 K; 101.3 kPa; Liquid
RESULT_TYPE: speed of sound (m/s)

| COMPOUND | RESULT_TYPE | READOUT_NUMBER |
| --- | --- | --- |
| CC(=O)O | speed of sound | 1115 |
| CO | speed of sound | 1088 |
| COC(C)=O [methyl ethanoate] | speed of sound | 1128 |
| CCO | speed of sound | 1128 |
| CCOC(C)=O [ethyl acetate] | speed of sound | 1118 |

====

Details: 303.15 K; 101.3 kPa; Liquid
Assign rule met to entries whose viscosity meets or exceeds 0.5 mPa·s; assign rule not met to the rest.

| MOLECULE | ASSIGNED_CLASS |
| --- | --- |
| COC(C)=O [methyl ethanoate] | rule not met |
| CC(=O)O [acetic acid] | rule met |
| O [water] | rule met |
| CCOC(C)=O [ethyl acetate] | rule not met |
| CCO [ethanol] | rule met |

====

Settings: 298.15 K; 101.3 kPa; Liquid
± gives the expanded uncertainty stated by the source.
Measured mass density values are reported for all entries that follow.
RESULT_TYPE: mass density

| COMPOUND | RESULT |
| --- | --- |
| CCO | 785.46 ± 0.47 kg/m3 |
| COC(C)=O [methyl ethanoate] | 926.98 ± 0.53 kg/m3 |
| CO | 787.2 ± 0.47 kg/m3 |
| CCOC(C)=O [ethyl acetate] | 894.43 ± 0.31 kg/m3 |
| CC(=O)O | 1043.65 ± 0.56 kg/m3 |

====

Conditions: 293.15 K; 101.3 kPa; Liquid
± gives the expanded uncertainty stated by the source.

| COMPOUND | mass density |
| --- | --- |
| CCOC(C)=O [ethyl acetate] | 900.52 ± 0.3 kg/m3 |
| COC(C)=O [methyl ethanoate] | 933.56 ± 0.53 kg/m3 |
| CO [methanol] | 791.9 ± 0.46 kg/m3 |
| CC(=O)O [acetic acid] | 1049.3 ± 0.57 kg/m3 |
| CCO [ethanol] | 789.75 ± 0.46 kg/m3 |
